# SYSTEM_TESTED: HRgpA-6H (Porphyromonas gingivalis) (UniProt P28784)
# EXPERIMENT_NOTES: ELISA, coated HRgpA-6H
VALUE_KIND: Ratio OD(Variant)/OD(WT)
Lab note: jot the number down without any unit.

BINDER	Ratio OD(Variant)/OD(WT)
KB001 mouse Fab VL S27L (Fab, V domains shown) VH: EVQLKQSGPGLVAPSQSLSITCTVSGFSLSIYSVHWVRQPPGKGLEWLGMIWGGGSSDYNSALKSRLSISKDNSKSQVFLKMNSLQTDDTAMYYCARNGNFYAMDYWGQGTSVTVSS VL: QIVLTQSPAIMSASLGERVTMTCTASLSVSSSFLHWYQQKPGSSPQLWIYSTSNLASGVPARFSGSGSGTSYSLTISSMEAEDAATYYCHQYHHSPYIYTFGGGTKLEIK	0.865

Turning now to a further record.
Please indicate Ratio OD(Variant)/OD(WT) recorded for KB001 mouse Fab VH K64R (Fab, V domains shown) VH: EVQLKQSGPGLVAPSQSLSITCTVSGFSLSIYSVHWVRQPPGKGLEWLGMIWGGGSSDYNSALRSRLSISKDNSKSQVFLKMNSLQTDDTAMYYCARNGNFYAMDYWGQGTSVTVSS VL: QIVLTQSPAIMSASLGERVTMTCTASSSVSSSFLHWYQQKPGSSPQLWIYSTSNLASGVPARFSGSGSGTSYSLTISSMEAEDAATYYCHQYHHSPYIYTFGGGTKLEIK 1.05
